Test system: CYP1A2 versus CYP1B1
Assay: Selectivity index, ratio of IC50 for inhibition of recombinant human CYP1A2 to IC50 for inhibition of recombinant human CYP1B1
Conditions: recombinant human CYP1A2 and recombinant human CYP1B1
reported_endpoint: selectivity ratio
# respond with the number and nothing more

Returns the measured selectivity ratio for the input compound. Input: COc1cc(Nc2nc(-c3nccs3)cs2)cc(OC)c1
733

Repeat for the following compound: Clc1cc(Cl)cc(Nc2nc(-c3nc(-c4cccnc4)cs3)cs2)c1
6.85

Repeat for the following compound: Clc1cc(Cl)cc(Nc2nc(-c3nccs3)cs2)c1
31.5

Repeat for the following compound: CCc1sc(-c2csc(Nc3cc(OC)cc(OC)c3)n2)nc1-c1ccccc1
484

Repeat for the following compound: CCc1sc(-c2csc(Nc3cc(Cl)cc(Cl)c3)n2)nc1-c1ccccc1
7.69

---

Overview of reported pIC50 across a group of compounds:
Target: Cytochrome P450 1B1 (Homo sapiens, UniProt Q16678)
Sequence (Q16678 whole entry): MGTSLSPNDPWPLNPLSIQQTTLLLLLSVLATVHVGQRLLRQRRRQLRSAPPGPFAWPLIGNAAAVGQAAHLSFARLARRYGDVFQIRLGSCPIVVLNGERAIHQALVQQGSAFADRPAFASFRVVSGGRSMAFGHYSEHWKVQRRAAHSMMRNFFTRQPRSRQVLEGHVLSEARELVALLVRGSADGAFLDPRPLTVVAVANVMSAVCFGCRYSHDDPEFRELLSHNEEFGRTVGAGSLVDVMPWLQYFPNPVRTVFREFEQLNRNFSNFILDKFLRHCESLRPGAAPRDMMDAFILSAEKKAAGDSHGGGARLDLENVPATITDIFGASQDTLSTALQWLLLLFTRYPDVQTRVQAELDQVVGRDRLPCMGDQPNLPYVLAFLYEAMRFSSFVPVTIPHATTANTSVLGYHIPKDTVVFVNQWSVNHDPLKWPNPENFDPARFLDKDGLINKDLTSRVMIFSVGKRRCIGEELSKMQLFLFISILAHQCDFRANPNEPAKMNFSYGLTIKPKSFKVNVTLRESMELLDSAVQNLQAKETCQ
Assay: Inhibition of recombinant human CYP1B1 using 7-ethyl-0-resorufin as substrate incubated for 30 mins in presence of NADPH by EROD assay
Note: pIC50 values are expressed as the negative base-10 logarithm of concentration in M.

Some solved entries appear below for comparison.
c1ccc(-c2csc(-c3csc(Nc4ccc(N5CCOCC5)cc4)n3)n2)cc1    7.94
COc1cc(Nc2nc(-c3nc(-c4ccccc4F)cs3)cs2)cc(OC)c1    8.18
Fc1ccc(-c2csc(-c3csc(Nc4ccc(N5CCOCC5)cc4)n3)n2)cc1    5.79
c1cn(Cc2ccc(Nc3nc(-c4nccs4)cs3)cc2)cn1    8.30
Fc1cccc(Nc2nc(-c3nc(-c4ccccc4)cs3)cs2)c1    8.19

Returns the measured pIC50 for the input compound. Input: Clc1cc(Cl)cc(Nc2nc(-c3nc(-c4ccncc4)cs3)cs2)c1
7.84

Repeat for the following compound: COc1cccc(-c2csc(-c3csc(Nc4ccc(N5CCOCC5)cc4)n3)n2)c1
7.57

Repeat for the following compound: COc1cc(Nc2nc(-c3nc(-c4cccc(C#N)c4)cs3)cs2)cc(OC)c1
7.78

Repeat for the following compound: Cc1sc(-c2csc(Nc3ccc(N4CCOCC4)cc3)n2)nc1-c1ccncc1
6.69

Repeat for the following compound: Clc1cccc(Nc2nc(-c3nccs3)cs2)c1
8.12

Repeat for the following compound: Clc1ccccc1-c1csc(-c2csc(Nc3ccc(N4CCOCC4)cc3)n2)n1
8.06

Repeat for the following compound: COc1cc(Nc2nc(-c3nc(-c4ccccc4)c(C)s3)cs2)cc(OC)c1
7.19

Repeat for the following compound: Clc1ccc(Nc2nc(-c3nccs3)cs2)cc1
8.20

Repeat for the following compound: COc1ccc(-c2csc(-c3csc(Nc4cc(OC)cc(OC)c4)n3)n2)cc1
7.29

Repeat for the following compound: Clc1cc(Cl)cc(Nc2nc(-c3nc(-c4ccccc4)cs3)cs2)c1
7.70

Repeat for the following compound: COc1cc(Nc2nc(-c3nc(-c4cccc(Cl)c4)cs3)cs2)cc(OC)c1
7.80

Repeat for the following compound: CCc1sc(-c2csc(Nc3cc(Cl)cc(Cl)c3)n2)nc1-c1ccccc1
7.53

Repeat for the following compound: COc1cc(Nc2nc(-c3nc(-c4ccccc4)c(-c4ccccc4)s3)cs2)cc(OC)c1
7.06

Repeat for the following compound: Clc1cc(Nc2nc(-c3nccs3)cs2)cc(Cl)c1Cl
8.13

Repeat for the following compound: COc1ccc(-c2csc(-c3csc(Nc4cccc(F)c4)n3)n2)cc1OC
6.25

Repeat for the following compound: Clc1cc(Cl)cc(Nc2nc(-c3nc(-c4ccccc4)c(-c4ccccc4)s3)cs2)c1
7.41

---

Target: Cytochrome P450 1A1 (Homo sapiens, UniProt P04798)
Sequence (P04798 whole entry): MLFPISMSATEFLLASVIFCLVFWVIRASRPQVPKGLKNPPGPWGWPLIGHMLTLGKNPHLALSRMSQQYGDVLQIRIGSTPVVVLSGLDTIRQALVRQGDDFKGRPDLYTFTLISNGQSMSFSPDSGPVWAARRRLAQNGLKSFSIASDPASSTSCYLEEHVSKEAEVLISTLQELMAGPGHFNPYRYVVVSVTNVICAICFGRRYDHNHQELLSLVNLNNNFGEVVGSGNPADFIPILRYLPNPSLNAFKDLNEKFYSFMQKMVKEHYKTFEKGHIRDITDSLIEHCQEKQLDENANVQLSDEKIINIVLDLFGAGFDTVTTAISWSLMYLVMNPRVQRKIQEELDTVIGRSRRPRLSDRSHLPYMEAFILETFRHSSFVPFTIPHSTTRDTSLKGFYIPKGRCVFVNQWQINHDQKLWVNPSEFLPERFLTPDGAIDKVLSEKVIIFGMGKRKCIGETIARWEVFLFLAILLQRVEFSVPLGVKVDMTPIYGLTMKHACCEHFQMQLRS
Experiment: Inhibition of CYP1A1 (unknown origin)
Format: ADME
reported_endpoint: pIC50
Note: pIC50 values are expressed as the negative base-10 logarithm of concentration in M.

Returns the measured pIC50 for the input compound. Input: Nc1ccc2[nH]c3c(c2c1)CCn1c-3nc2ccccc2c1=O
5.59

---

Target: CYP1B1 (Homo sapiens)
Experiment: Inhibition of recombinant human CYP1B1 assessed as inhibition ratio at 100 nM using 7-ethyl-0-resorufin as substrate incubated for 30 mins in presence of NADPH by EROD assay relative to control
Details: recombinant human CYP1B1, probe 7-ethyl-0-resorufin
Binary classification by inhibition at 0.5 h, 0.1 µM, with 90% as an inclusive lower bound for Y; all other cases are N.

Examples with answers:
O=[N+]([O-])c1ccc(Nc2nc(-c3nccs3)cs2)cc1    N
Fc1ccc(Nc2nc(-c3nccs3)cs2)cc1Cl    Y
Clc1cc(Cl)cc(Nc2nc(-c3nccs3)cs2)c1    Y
Clc1ccccc1Nc1nc(-c2nccs2)cs1    N
Oc1ccc(Nc2nc(-c3nccs3)cs2)cc1    N

Form field: inhibition at 0.5 h, 0.1 µM at least 90%? Entry: Nc1cccc(Nc2nc(-c3nccs3)cs2)c1
N

Repeat for the following compound: CN1CCN(c2ccc(Nc3nc(-c4nccs4)cs3)cc2)CC1
N

Repeat for the following compound: COc1cccc(Nc2nc(-c3nccs3)cs2)c1
Y

Repeat for the following compound: COc1ccc(Nc2nc(-c3nccs3)cs2)cc1OC
N

---

Test system: CYP1A1 versus CYP1B1
Assay: Selectivity index, ratio of IC50 for inhibition of recombinant human CYP1A1 to IC50 for inhibition of recombinant human CYP1B1
Settings: recombinant human CYP1A1 and recombinant human CYP1B1
Binary classification by selectivity ratio, with 50 as an inclusive lower bound for Fulfilled; all other cases are Not fulfilled.

Examples with answers:
COc1cc(Nc2nc(-c3nc(-c4ccccc4)c(-c4ccccc4)s3)cs2)cc(OC)c1    Not fulfilled
c1csc(-c2csc(Nc3ccc(Cn4cncn4)cc3)n2)n1    Not fulfilled
Clc1cc(Cl)cc(Nc2nc(-c3nccs3)cs2)c1    Fulfilled
Clc1ccc(Nc2nc(-c3nccs3)cs2)cc1    Fulfilled
COc1cc(Nc2nc(-c3nccs3)cs2)cc(OC)c1    Fulfilled
CCc1sc(-c2csc(Nc3cc(Cl)cc(Cl)c3)n2)nc1-c1ccccc1    Not fulfilled
Fc1ccc(-c2csc(-c3csc(Nc4ccc(N5CCOCC5)cc4)n3)n2)cc1    Not fulfilled
Clc1ccccc1-c1csc(-c2csc(Nc3ccc(N4CCOCC4)cc3)n2)n1    Not fulfilled
COc1cccc(Nc2nc(-c3nccs3)cs2)c1    Not fulfilled

Now look at this one.
Form field: selectivity ratio at least 50? Entry: Clc1cc(Nc2nc(-c3nccs3)cs2)cc(Cl)c1Cl
Fulfilled

---

Molecular target: CYP1B1 (Homo sapiens, UniProt Q16678)
Assay: Inhibition of recombinant human CYP1B1 assessed as inhibition ratio at 100 nM using 7-ethyl-0-resorufin as substrate incubated for 30 mins in presence of NADPH by EROD assay relative to control
Details: recombinant enzyme
reported_endpoint: inhibition at 0.5 h, 0.1 µM

Returns the measured inhibition at 0.5 h, 0.1 µM for the input molecule. Input: COc1cc(/C=C/c2ccc(OC)cc2OC)cc(OC)c1
88.9%

---

Overview of reported IC50 across a group of compounds:
Biological target: UniProtKB Q16678
Test: Inhibition of recombinant human CYP1B1 using 7-ethyl-0-resorufin as substrate incubated for 30 mins in presence of NADPH by EROD assay
Report the figure in nM without appending any unit label.

Some solved entries appear below for comparison.
COc1cc(Nc2nc(-c3nc(-c4cccc(F)c4)cs3)cs2)cc(OC)c1    11.1
Fc1cccc(Nc2nc(-c3nc(-c4cccnc4)cs3)cs2)c1    0.551
CCc1sc(-c2csc(Nc3cc(OC)cc(OC)c3)n2)nc1-c1ccccc1    10.8
COc1cc(Nc2nc(-c3nc(-c4ccc(Cl)cc4F)cs3)cs2)cc(OC)c1    12.7

Returns the measured IC50 for the input compound. Input: c1cncc(-c2csc(-c3csc(Nc4ccc(N5CCOCC5)cc4)n3)n2)c1
15.9

Repeat for the following compound: Clc1cc(Cl)cc(Nc2nc(-c3nccs3)cs2)c1
1.76

Repeat for the following compound: COc1cc(Nc2nc(-c3nc(-c4ccc(F)cc4)cs3)cs2)cc(OC)c1
65.1

Repeat for the following compound: Fc1cccc(Nc2nc(-c3nc(-c4ccccn4)cs3)cs2)c1
11.8

Repeat for the following compound: Clc1cc(Cl)cc(Nc2nc(-c3nc(-c4cccnc4)cs3)cs2)c1
33.1

Repeat for the following compound: Fc1ccc(Nc2nc(-c3nccs3)cs2)cc1
35.7

Taken from ChEMBL document CHEMBL5236635.
